Experimental System: ZFP SBS#909 (synthetic)
Sequence (chain, as listed by the source): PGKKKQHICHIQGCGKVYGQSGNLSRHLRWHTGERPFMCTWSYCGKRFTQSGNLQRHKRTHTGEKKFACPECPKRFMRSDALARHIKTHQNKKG
Method Description: EMSA
Condition Notes: tags: MBP fusion
Parameter: pKd
# log scale: pKd equals minus log10 of the concentration in mol/L

Query: Dear colleague, please send me the reported pKd for GTGGAAGAA (dsDNA) DNA 1: GTGGAAGAA DNA 2: TTCTTCCAC when you can.
Response: 7.79
